Reference source for all entries: ChEMBL document CHEMBL1130789

- Species on record: Bos taurus
- ASSAY_METHOD_TEXT: Selectivity ratio of Bovine chymotrypsin (BCT - Ki) to human heart chymase (HHC - Ki)
Lab note - cut at 20 for Ratio: Met if strictly below, Not met if not.

Asked: Just wondering, is Ratio of CC(C)[C@H](NC(=O)OC(C)(C)C)C(=O)N1CCC[C@H]1C(=O)NC(Cc1ccccc1)C(=O)C(F)(F)C(=O)NC(CCC(=O)O)C(=O)O (stereo partly drawn) below 20?
Given back: Not met

Asked: Just wondering, is Ratio of CC(C)[C@H](NC(=O)OC(C)(C)C)C(=O)N1CCC[C@H]1C(=O)NC(Cc1ccccc1)C(=O)C(F)(F)C(=O)NCC(=O)OCc1ccccc1 (stereo partly drawn) below 20?
Given back: Not met

Asked: Just wondering, is Ratio of CNC(=O)C(F)(F)C(=O)C(Cc1ccccc1)NC(=O)[C@@H]1CCCN1C(=O)[C@@H](NC(=O)OC(C)(C)C)C(C)C (stereo partly drawn) below 20?
Given back: Not met

Asked: Just wondering, is Ratio of CC(C)[C@H](NC(=O)CCc1ccccc1)C(=O)N1CCC[C@H]1C(=O)NC(Cc1ccccc1)C(=O)C(F)(F)C(=O)Nc1cccc(C(=O)O)c1 (stereo partly drawn) below 20?
Given back: Met

Asked: Just wondering, is Ratio of CC(C)[C@H](NC(=O)OC(C)(C)C)C(=O)N1CCC[C@H]1C(=O)NC(Cc1ccccc1)C(=O)C(F)(F)C(=O)NC(Cc1ccccc1)C(=O)O (stereo partly drawn) below 20?
Given back: Not met

Asked: Just wondering, is Ratio of CC(C)[C@H](NS(=O)(=O)c1ccccc1)C(=O)N1CCC[C@H]1C(=O)NC(Cc1ccccc1)C(=O)C(F)(F)C(=O)Nc1cccc(C(=O)O)c1 (stereo partly drawn) below 20?
Given back: Not met

Asked: Just wondering, is Ratio of COC(=O)CNC(=O)C(F)(F)C(=O)C(Cc1ccccc1)NC(=O)[C@@H]1CCCN1C(=O)[C@@H](NC(=O)OC(C)(C)C)C(C)C (stereo partly drawn) below 20?
Given back: Not met

Asked: Just wondering, is Ratio of CC(C)[C@H](NS(C)(=O)=O)C(=O)N1CCC[C@H]1C(=O)NC(Cc1ccccc1)C(=O)C(F)(F)C(=O)Nc1cccc(C(=O)O)c1 (stereo partly drawn) below 20?
Given back: Met

---

For each of the compounds below, state its Ratio.
- Organism: Bos taurus
- ASSAY_METHOD_TEXT: Selectivity ratio of Bovine chymotrypsin (BCT - Ki) to human heart chymase (HHC - Ki)

Sample CC(C)[C@H](NC(=O)OC(C)(C)C)C(=O)N1CCC[C@H]1C(=O)NC(Cc1ccccc1)C(=O)C(F)(F)C(=O)NC(CC(=O)O)C(=O)O (some centres undefined) ; Ratio observed: > 65

Sample CC(C)[C@H](NC(=O)OC(C)(C)C)C(=O)N1CCC[C@H]1C(=O)NC(Cc1ccccc1)C(=O)C(F)(F)C(=O)N1CCCC1C(=O)O (some centres undefined) ; Ratio observed: > 203

Sample CC(C)[C@H](NC(=O)OC(C)(C)C)C(=O)N1CCC[C@H]1C(=O)NC(Cc1ccccc1)C(=O)C(F)(F)C(=O)NC(C(=O)O)c1ccccc1 (some centres undefined) ; Ratio observed: > 96

Sample CC(C)[C@H](NC(=O)OC(C)(C)C)C(=O)N1CCC[C@H]1C(=O)NC(Cc1ccccc1)C(=O)C(F)(F)C(=O)Nc1ccccc1C(=O)O (some centres undefined) ; Ratio observed: > 28
